# experimental.protocol: Long-term stability of QC samples (−20 °C for 20 days)
# Assay type: physicochemical, rat
# reported.conditions: plasma QC, spiked 250 ng/mL
// returns no (0) unless Long-term stability Mean is strictly below 90%, in which case yes (1)

*Q* Identify whether the molecule O=C1C[C@@H](c2ccc(O)cc2)Oc2cc(O)cc(O)c21 [Analyte 14, naringenin] records Long-term stability Mean below 90%.
*A* no (0)

*Q* Identify whether the molecule O=Cc1ccc2n1C[C@@]1(C[C@H](O)[C@@H](CO)O1)OC2 [Analyte 4, 9-epi-acortatarin A] records Long-term stability Mean below 90%.
*A* yes (1)

*Q* Identify whether the molecule O=c1c(-c2ccc(O)cc2)coc2cc(O[C@@H]3O[C@H](CO)[C@@H](O)[C@H](O)[C@H]3O)cc(O)c12 [Analyte 7, genistin] records Long-term stability Mean below 90%.
*A* no (0)

*Q* Identify whether the molecule COc1ccc(-c2coc3cc(O[C@@H]4O[C@H](CO)[C@@H](O)[C@H](O)[C@H]4O)ccc3c2=O)cc1 [Analyte 10, ononin] records Long-term stability Mean below 90%.
*A* yes (1)

*Q* Identify whether the molecule COC(=O)c1ccc(O)cn1 [Analyte 2, 5-hydroxypicolinic acid methyl ester] records Long-term stability Mean below 90%.
*A* yes (1)

*Q* Identify whether the molecule O=C(O)c1ccccc1O [Analyte 8, salicylic acid] records Long-term stability Mean below 90%.
*A* no (0)

*Q* Identify whether the molecule O=Cc1ccc2n1C[C@]1(C[C@H](O)[C@@H](CO)O1)OC2 [Analyte 3, acortatarin A] records Long-term stability Mean below 90%.
*A* yes (1)

====

# experimental.protocol: Freeze–thaw stability of QC samples (−20 °C, three times)
# Format: physicochemical, rat
# reported.conditions: plasma QC, spiked 500 ng/mL, freeze (−20 °C) and thaw three times
// returns class 0 unless Freeze–thaw stability Mean is strictly below 90%, in which case class 1

*Q* Identify whether the molecule COC(=O)c1ccc(O)cn1 [Analyte 2, 5-hydroxypicolinic acid methyl ester] records Freeze–thaw stability Mean below 90%.
*A* class 1

*Q* Identify whether the molecule "COc1cc(O[C@@H]2O[C@H](CO)[C@@H](O)[C@H](O)[C@H]2O)cc(OC)c1OC" records Freeze–thaw stability Mean below 90%.
*A* class 0

*Q* Identify whether the molecule "O=C1C[C@@H](c2ccc(O)cc2)Oc2cc(O)cc(O)c21" records Freeze–thaw stability Mean below 90%.
*A* class 1

*Q* Identify whether the molecule "COc1ccc(-c2coc3cc(O[C@@H]4O[C@H](CO)[C@@H](O)[C@H](O)[C@H]4O)ccc3c2=O)cc1" records Freeze–thaw stability Mean below 90%.
*A* class 1

*Q* Identify whether the molecule "COc1ccccc1-c1cc(=O)c2c(O)cc(OC)c(OC)c2o1" records Freeze–thaw stability Mean below 90%.
*A* class 0

*Q* Identify whether the molecule O=Cc1ccc2n1C[C@@]1(C[C@H](O)[C@@H](CO)O1)OC2 [Analyte 4, 9-epi-acortatarin A] records Freeze–thaw stability Mean below 90%.
*A* class 0

====

# experimental.protocol: Pharmacokinetic study in rat plasma after oral administration of FKQJF extract (UFLC–MS/MS)
# Type: in vivo, Sprague-Dawley (SD) rats
# reported.conditions: oral FKQJF extract 3.2 g/kg
readout.type: shape of the plasma concentration–time curve

INSERT INTO measurements (compound, reading) VALUES
  ('COc1ccc(-c2coc3cc(O[C@@H]4O[C@H](CO)[C@@H](O)[C@H](O)[C@H]4O)ccc3c2=O)cc1', 'double-peaks'),
  ('C=C1CC[C@@H]2[C@](C)(CO)[C@H](O)CC[C@@]2(C)[C@@H]1/C=C/C1=CCOC1=O [Analyte 15, 14-deoxy-11,12-didehydro-andrographolide]', 'double-peaks'),
  ('COc1ccccc1-c1cc(=O)c2c(O)cc(OC)c(OC)c2o1', 'double-peaks');

====

# experimental.protocol: Pharmacokinetic study in rat plasma after oral administration of FKQJF extract (UFLC–MS/MS)
# Assay type: in vivo, Sprague-Dawley (SD) rats
# reported.conditions: Sprague-Dawley, oral FKQJF extract, single dose 3.2 g/kg, mean ± SD
Provide the reported half-life of each item.
Please answer using the number first and the unit second.

*Q* # input compound: COc1cc(O[C@@H]2O[C@H](CO)[C@@H](O)[C@H](O)[C@H]2O)cc(OC)c1OC [Analyte 1] ; wanted: its half-life
*A* 1.79 h

*Q* # input compound: COc1cc2c(cc1OC)-c1cc3ccc(OC)c(OC)c3c[n+]1CC2 [Analyte 11, palmatine] ; wanted: its half-life
*A* 9.16 h

*Q* # input compound: COc1cc(O)c2c(=O)cc(-c3ccccc3)oc2c1OC [Analyte 19, 7-O-methylwogonin] ; wanted: its half-life
*A* 1.1 h

*Q* # input compound: O=c1c(-c2ccc(O)cc2)coc2cc(O[C@@H]3O[C@H](CO)[C@@H](O)[C@H](O)[C@H]3O)cc(O)c12 [Analyte 7, genistin] ; wanted: its half-life
*A* 7.68 h

*Q* # input compound: COc1ccc(-c2coc3cc(O[C@@H]4O[C@H](CO)[C@@H](O)[C@H](O)[C@H]4O)ccc3c2=O)cc1 [Analyte 10, ononin] ; wanted: its half-life
*A* 1.64 h

*Q* # input compound: COc1cc2c(cc1O)CC[n+]1cc3c(OC)c(OC)ccc3cc1-2 [Analyte 9, jatrorrhizine] ; wanted: its half-life
*A* 9.65 h

*Q* # input compound: CCC/C=C1\OC(=O)C2=C1CCC=C2 [Analyte 18, Z-ligustilide] ; wanted: its half-life
*A* 33.6 h

*Q* # input compound: O=C1C[C@@H](c2ccc(O)cc2)Oc2cc(O)cc(O)c21 [Analyte 14, naringenin] ; wanted: its half-life
*A* 12.1 h

====

# experimental.protocol: Pharmacokinetic study in rat plasma after oral administration of FKQJF extract (UFLC–MS/MS)
# Type: in vivo, Sprague-Dawley (SD) rats
# reported.conditions: Sprague-Dawley, oral FKQJF extract, single dose 3.2 g/kg, mean ± SD, read-out: MRT0→t
Provide the reported MRT last of each item.
Answer with a number only, understood to be in h.

*Q* # input compound: COc1cc(/C=C/C(=O)O)ccc1O [Analyte 6, trans-ferulic acid] ; wanted: its MRT last
*A* 9.19

*Q* # input compound: O=c1c(-c2ccc(O)cc2)coc2cc(O[C@@H]3O[C@H](CO)[C@@H](O)[C@H](O)[C@H]3O)cc(O)c12 [Analyte 7, genistin] ; wanted: its MRT last
*A* 9.04

*Q* # input compound: COc1cc2c(cc1OC)-c1cc3ccc(OC)c(OC)c3c[n+]1CC2 [Analyte 11, palmatine] ; wanted: its MRT last
*A* 11

*Q* # input compound: COc1cc2c(cc1O)CC[n+]1cc3c(OC)c(OC)ccc3cc1-2 [Analyte 9, jatrorrhizine] ; wanted: its MRT last
*A* 8.96

*Q* # input compound: C=C1CC[C@@H]2[C@](C)(CO)[C@H](O)CC[C@@]2(C)[C@@H]1C/C=C1/C(=O)OC[C@H]1O [Analyte 12, andrographolide] ; wanted: its MRT last
*A* 2.45

*Q* # input compound: COc1ccc(-c2coc3cc(O[C@@H]4O[C@H](CO)[C@@H](O)[C@H](O)[C@H]4O)ccc3c2=O)cc1 [Analyte 10, ononin] ; wanted: its MRT last
*A* 2.54

====

# experimental.protocol: Pharmacokinetic study in rat plasma after oral administration of FKQJF extract (UFLC–MS/MS)
# Type: in vivo, Sprague-Dawley (SD) rats
# reported.conditions: Sprague-Dawley, oral FKQJF extract, single dose 3.2 g/kg, mean ± SD
Entry flag: T if half-life reaches 4 h; F if it does not.

*Q* In plain terms: is recorded half-life at least 4 h for O=Cc1ccc2n1C[C@@]1(C[C@H](O)[C@@H](CO)O1)OC2 [Analyte 4, 9-epi-acortatarin A] ?
*A* F

*Q* In plain terms: is recorded half-life at least 4 h for "COc1ccc2cc3[n+](cc2c1OC)CCc1cc2c(cc1-3)OCO2" ?
*A* T

*Q* In plain terms: is recorded half-life at least 4 h for C=C1CC[C@@H]2[C@](C)(CO)[C@H](O)CC[C@@]2(C)[C@@H]1/C=C/C1=CCOC1=O [Analyte 15, 14-deoxy-11,12-didehydro-andrographolide] ?
*A* F

*Q* In plain terms: is recorded half-life at least 4 h for "O=C(O)c1ccccc1O" ?
*A* F

*Q* In plain terms: is recorded half-life at least 4 h for C=C1CC[C@@H]2[C@](C)(CO)[C@H](O)CC[C@@]2(C)[C@@H]1C/C=C1/C(=O)OC[C@H]1O [Analyte 12, andrographolide] ?
*A* F

*Q* In plain terms: is recorded half-life at least 4 h for COC(=O)c1ccc(O)cn1 [Analyte 2, 5-hydroxypicolinic acid methyl ester] ?
*A* T

*Q* In plain terms: is recorded half-life at least 4 h for "C=C1CC[C@@H]2[C@](C)(CO)CCC[C@@]2(C)[C@@H]1CCC1=CCOC1=O" ?
*A* T

*Q* In plain terms: is recorded half-life at least 4 h for "COc1ccccc1-c1cc(=O)c2c(O)cc(OC)c(OC)c2o1" ?
*A* T
